Measured Ratio IC50 values are reported for all entries that follow.
molecular target: Muscarinic acetylcholine receptors; M2 & M3 (Homo sapiens) (UniProt P20309+P08172); assay: Selectivity for cloned muscarinic M3 receptor over cloned muscarinic M2 receptor
Form field (numeric): enter value without unit.

Consider the molecule shown here: C[N+]1(C)[C@@H]2CC[C@H]1C[C@H](OC(=O)N(Cc1ccccc1)c1ccccc1)C2.[Br-] What is its recorded Ratio IC50?
10.4

Using the record for COc1cccc(CN(C(=O)O[C@@H]2C[C@H]3CC[C@@H](C2)[N+]3(C)C)c2ccccc2)c1 , report its Ratio IC50.
1

Sample CN1[C@@H]2CC[C@H]1C[C@H](OC(=O)N(Cc1ccoc1)c1ccccc1)C2 — what was its Ratio IC50?
1.4

Quick one: Ratio IC50 for Cc1ccsc1CN(C(=O)O[C@H]1C[C@H]2CC[C@@H](C1)[N+]2(C)C)c1ccccc1 ?
5.4

Given the molecule COc1ccc(CN(C(=O)O[C@H]2C[C@H]3CC[C@@H](C2)N3C)c2ccccc2)cc1 , what is its reported Ratio IC50?
1.8

Now let's try a different one.
Ratio IC50 lookup needed for CN1[C@@H]2CC[C@H]1C[C@H](OC(=O)N(Cc1ccccc1)c1ccccc1)C2 , thanks.
3.4
